Below, each entry is listed with its recorded abundance fitness.
B1: Homeobox protein cut-like 1, residues 941 to 1008; numbered along this chain, P39880 (parent)
chain: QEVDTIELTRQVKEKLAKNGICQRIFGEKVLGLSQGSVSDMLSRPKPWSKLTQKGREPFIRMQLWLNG

Variants of: B1
Experiment: abundance fitness (aPCA) (normalised: wild type 0, dead -1); higher = more abundant; growth selection in yeast, the domain comes from the species named
Conditions: Homo sapiens

Q1S : 0.045

Quick one: abundance fitness of "I21Y" ?
0.019

Quick one: abundance fitness of "G36V" ?
-0.084

Quick one: abundance fitness of "G32H" ?
-0.096

Quick one: abundance fitness of "S37G" ?
-0.123
